Test system: A549 cells (Kras G12S mutation)
Assay: Cell proliferation inhibition experiment, 3D cell model, CellTiter-Glo (A549)
Format: cell-based, human
Settings: Homo sapiens, A549, 120 h, A549, 2% FBS F-12K, 384-well sphere plate, cultured 5 days with compound
pIC50: −log10 of the molar value.
Recorded pIC50 values for a group of compounds are listed next.

Answered cases to consult:
Ask | Quote pIC50 reported for C=CC(=O)N1CCN(c2nc(OC[C@@H]3CCCN3C)nc3c(OC4CC4)c(-c4c(C)ccc5[nH]ncc45)c(Cl)cc23)CC1 please.
Reply | < 6.00

Ask | Quote pIC50 reported for C=CC(=O)N1CCN(c2nc(O[C@@H]3CCN(C)C3)nc3c(OC4CC4)c(-c4c(C)ccc5[nH]ncc45)c(Cl)cc23)CC1 please.
Reply | < 5.30

Ask | Quote pIC50 reported for C=CC(=O)N1CCN(c2nc(OC3CCN(C)CC3)nc3c(OC4CCOCC4)c(-c4c(C)ccc5[nH]ncc45)c(Cl)cc23)CC1 please.
Reply | < 6.00

Ask | Quote pIC50 reported for C=CC(=O)N1CCN(c2nc(OC[C@@H]3C[C@H](F)CN3C)nc3c(OC4CC4)c(-c4c(C)ccc5[nH]ncc45)c(Cl)cc23)CC1 please.
Reply | < 4.52

Ask | Quote pIC50 reported for C=CC(=O)N1CCN(c2nc(OC[C@@H]3CCCN3C)nc3c(OC4CC(F)(F)C4)c(-c4c(C)ccc5[nH]ncc45)c(Cl)cc23)C[C@@H]1CC#N please.
Reply | < 5.30

---
Ask | Quote pIC50 reported for C=CC(=O)N1[C@@H]2CC[C@H]1CN(c1nc(OC[C@@H]3CCCN3C)nc3c(OC4CC4)c(-c4c(C)ccc5[nH]ncc45)c(Cl)cc13)C2 please.
Reply | < 4.52

Ask | Quote pIC50 reported for C=CC(=O)N1CCN(c2nc(OC[C@@H]3CCCN3C)nc3c(OC4CCOC4)c(-c4c(C)ccc5[nH]ncc45)c(Cl)cc23)CC1 (stereo partly drawn) [Compound Z10A] please.
Reply | < 5.00

Ask | Quote pIC50 reported for C=CC(=O)N1CCN(c2nc(OC[C@@H]3CCCN3C)nc3c(OC4CC4)c(-c4c(C)ccc5[nH]ncc45)c(Cl)cc23)C[C@H]1C please.
Reply | < 5.30

Ask | Quote pIC50 reported for C=CC(=O)N1CCN(c2nc(OC[C@@H]3CCCN3C)nc3c(OC4CC4)c(-c4c(C)ccc5[nH]ncc45)c(Cl)cc23)[C@H](C)C1 please.
Reply | < 6.00

Ask | Quote pIC50 reported for C=CC(=O)N1CCN(c2nc(OC[C@@H]3CCCN3C)nc3c(OC4CC4)c(-c4c(C)ccc5[nH]ncc45)c(OC)cc23)C[C@@H]1CC#N (single isomer, unassigned) [Compound Z50A] please.
Reply | < 5.00

Ask | Quote pIC50 reported for C=CC(=O)N1CCN(c2nc(OC[C@@H]3CCCN3C)nc3c(OC4CCC4)c(-c4c(C)ccc5[nH]ncc45)c(Cl)cc23)CC1 please.
Reply | < 5.00

Ask | Quote pIC50 reported for C=CC(=O)N1CCN(c2nc(OC[C@@H]3CCCN3C)nc3c(OC4CC4)c(-c4c(C)ccc5[nH]nc(F)c45)c(Cl)cc23)CC1 please.
Reply | < 5.30

----------
Tested on: A549 cells (Kras G12S mutation)
Experiment: Cell proliferation inhibition experiment, 3D cell model, CellTiter-Glo (A549)
Format: cell-based, human
Settings: A549, 2% FBS F-12K, 384-well sphere plate, cultured 5 days with compound
pIC50: −log10 of the molar value.
reportedProperty: pIC50

Ask | Specify the recorded pIC50 for C=CC(=O)N1CCN(c2nc(OC[C@@H]3CCCN3C)nc3c(OC4CC4)c(-c4c(C)ccc5[nH]ncc45)c(Cl)cc23)[C@@H](C)C1 (single isomer, unassigned) [Compound Z28B] , system: A549 cells (Kras G12S mutation).
Reply | < 6.00

Ask | Specify the recorded pIC50 for C=CC(=O)N1CCN(c2nc(OC3CCN(C)CC3)nc3c(OC4CC4)c(-c4c(C)ccc5[nH]ncc45)c(Cl)cc23)CC1 (single isomer, unassigned) [Compound Z12B] , system: A549 cells (Kras G12S mutation).
Reply | < 5.30

Ask | Specify the recorded pIC50 for C=CC(=O)N1CCN(c2nc(OC3CCN(C)CC3)nc3c(OC4CC4)c(-c4c(C)ccc5[nH]ncc45)c(Cl)cc23)CC1 (single isomer, unassigned) [Compound Z12A] , system: A549 cells (Kras G12S mutation).
Reply | < 6.00

---
Ask | Specify the recorded pIC50 for C=CC(=O)N1CCN(c2nc(OC[C@@H]3CCCN3C)nc3c(OC4CC4)c(-c4c(C)ccc5[nH]ncc45)c(Cl)cc23)CC1 (single isomer, unassigned) , system: A549 cells (Kras G12S mutation).
Reply | < 6.00

Ask | Specify the recorded pIC50 for C=CC(=O)N1CCN(c2nc(O[C@@H]3CCN(C)C3)nc3c(OC4CC4)c(-c4c(C)ccc5[nH]ncc45)c(Cl)cc23)CC1 (single isomer, unassigned) [Compound Z39B] , system: A549 cells (Kras G12S mutation).
Reply | < 4.52

Ask | Specify the recorded pIC50 for C=CC(=O)N1CCN(c2nc(O[C@H]3CCN(C)C3)nc3c(OC4CC4)c(-c4c(C)ccc5[nH]ncc45)c(Cl)cc23)CC1 (single isomer, unassigned) [Compound Z40A] , system: A549 cells (Kras G12S mutation).
Reply | < 4.52

----------
Recorded IC50 values for a group of molecules are listed next.
Test system: A549 cells (Kras G12S mutation)
Assay: Cell proliferation inhibition experiment, 3D cell model, CellTiter-Glo (A549)
Assay type: cell-based, human
Details: Homo sapiens, A549, 120 h, A549, 2% FBS F-12K, 384-well sphere plate, cultured 5 days with compound

Answered cases to consult:
Ask | Quote IC50 reported for C=CC(=O)N1CCN(c2nc(OC[C@@H]3CCCN3C)nc3c(OC4CC4)c(-c4c(C)ccc5[nH]ncc45)c(OC)cc23)[C@@H](C)C1 (single isomer, unassigned) [Compound Z48B] please.
Reply | > 10 µM

Ask | Quote IC50 reported for C=CC(=O)N1CCN(c2nc(OC[C@@H]3CCCN3C)nc3c(OC4CC(F)(F)C4)c(-c4c(C)ccc5[nH]ncc45)c(Cl)cc23)CC1 [Compound Z4] please.
Reply | > 1 µM

Ask | Quote IC50 reported for C=CC(=O)N1CCN(c2nc(OC3CCN(C)CC3)nc3c(OC4CC(F)(F)C4)c(-c4c(C)ccc5[nH]ncc45)c(Cl)cc23)CC1 [Compound Z1] please.
Reply | > 1 µM

Ask | Quote IC50 reported for C=CC(=O)N1CCN(c2nc(OCCN(C)C)nc3c(OC4CC4)c(-c4c(C)ccc5[nH]ncc45)c(Cl)cc23)CC1 [Compound Z36] please.
Reply | > 30 µM

Ask | Quote IC50 reported for C=CC(=O)N1CCN(c2nc(OC[C@@H]3CCCN3C)nc3c(OC4CC4)c(-c4c(O)cccc4F)c(Cl)cc23)CC1 [Compound Z13] please.
Reply | > 1 µM

---
Ask | Quote IC50 reported for C=CC(=O)N1CCN(c2nc(N3CCC(N(C)C)CC3)nc3c(OC4CC4)c(-c4c(C)ccc5[nH]ncc45)c(Cl)cc23)CC1 [Compound Z34] please.
Reply | > 30 µM

Ask | Quote IC50 reported for C=CC(=O)N1CCN(c2nc(OC[C@@H]3CCCN3C)nc3c(OC4CC4)c(-c4c(C)ccc5[nH]ncc45)c(Cl)cc23)CC1CC#N (stereo partly shown) [Compound Z31] please.
Reply | > 10 µM

Ask | Quote IC50 reported for C=CC(=O)N1CCN(c2nc(OC[C@@H]3C[C@@H](F)CN3C)nc3c(OC4CC4)c(-c4c(C)ccc5[nH]ncc45)c(Cl)cc23)CC1 [Compound Z38] please.
Reply | > 30 µM

Ask | Quote IC50 reported for C=CC(=O)N1CCN(c2nc(N3CC(N(C)C)C3)nc3c(OC4CC4)c(-c4c(C)ccc5[nH]ncc45)c(Cl)cc23)CC1 [Compound Z33] please.
Reply | > 5 µM

Ask | Quote IC50 reported for C=CC(=O)N1CCN(c2nc(OC[C@@H]3CCCN3C)nc3c(OC4CC(F)(F)C4)c(-c4c(C)ccc5[nH]ncc45)c(Cl)cc23)[C@@H](C)C1 [Compound Z5] please.
Reply | > 10 µM

----------
Tested on: A549 cells (Kras G12S mutation)
Assay: Cell proliferation inhibition experiment, 3D cell model, CellTiter-Glo (A549)
Type: cell-based, human
Conditions: Homo sapiens, A549, 120 h, A549, 2% FBS F-12K, 384-well sphere plate, cultured 5 days with compound
pIC50: −log10 of the molar value.
Recorded pIC50 values for a group of compounds are listed next.

Answered cases to consult:
Ask | Specify the recorded pIC50 for C=CC(=O)N1CCN(c2nc(OC[C@@H]3CCCN3C)nc3c(OC4CC4)c(-c4c(C)ccc5[nH]ncc45)c(Cl)cc23)C[C@@H]1C [Compound Z29] , system: A549 cells (Kras G12S mutation).
Reply | < 5.00

Ask | Specify the recorded pIC50 for C=CC(=O)N1CCN(c2nc(OC[C@@H]3CCCN3C)nc3c(OC4CC4)c(-c4c(C)ccc5[nH]ncc45)c(Cl)cc23)[C@@H](C)C1 [Compound Z28] , system: A549 cells (Kras G12S mutation).
Reply | < 6.00

Please look at the following compound next.
Ask | Specify the recorded pIC50 for C=CC(=O)N1CCN(c2nc(OC3CCN(C)C3)nc3c(OC4CC4)c(-c4c(C)ccc5[nH]ncc45)c(Cl)cc23)CC1 (stereo not drawn) [Compound Z32] , system: A549 cells (Kras G12S mutation).
Reply | < 6.00
